Here's a batch of compounds along with measured log10(IC50) for Nitric oxide synthase, inducible (Homo sapiens).
Field: value | Transform: log10 | Quantity: IC50 | Unit: µM

Some entries whose results are on file:
query: If you can, please state the reported log10(IC50) value of `Nc1cccc(-c2ccc(OCCN3CCCC3)c3c2CCCC3)n1` .
result: -0.45

query: If you can, please state the reported log10(IC50) value of `CN1CCN(CCOc2ccc(-c3cccc(N)n3)c3ccccc23)CC1` .
result: 0.97

query: If you can, please state the reported log10(IC50) value of `Nc1cccc(-c2ccc(OCCN3CCCC3)c3c2CCC3)n1` .
result: -0.35

query: If you can, please state the reported log10(IC50) value of CN(C)CCOc1ccc(-c2cccc(N)n2)c2c1C1CCC2C1 (configuration not stated) .
result: 0.03

query: If you can, please state the reported log10(IC50) value of `CN(C)CCOc1ccc(-c2cccc(N)n2)c2c1CCC2` .
result: -0.23

Parameters: items (list). Returns: log10(IC50) for each item.
1. CN(C)CCOc1ccc(-c2cccc(N)n2)c2c1CCCCC2
2. CN(C)CCOc1ccc(-c2cccc(N)n2)c2ccccc12
3. CN1CCCC1COc1ccc(-c2cccc(N)n2)c2ccccc12 (configuration not stated)
4. CN(C)CCOc1ccc(-c2cccc(N)n2)c2c1CCCC2
5. CN1CCC(Oc2ccc(-c3cccc(N)n3)c3ccccc23)C1 (configuration not stated)
6. CN(C)C1CCN(CCOc2ccc(-c3cccc(N)n3)c3ccccc23)CC1

result:
1. 0.32
2. 0.66
3. 0.45
4. -0.29
5. 0.32
6. 0.76

query: If you can, please state the reported log10(IC50) value of `Nc1cccc(-c2ccc(OCCN3CCCC3)c3ccccc23)n1` .
result: 0.25

====

# targetDesc: Nitric oxide synthase 1 (Homo sapiens, UniProt P29475)
# Sequence (P29475 whole entry): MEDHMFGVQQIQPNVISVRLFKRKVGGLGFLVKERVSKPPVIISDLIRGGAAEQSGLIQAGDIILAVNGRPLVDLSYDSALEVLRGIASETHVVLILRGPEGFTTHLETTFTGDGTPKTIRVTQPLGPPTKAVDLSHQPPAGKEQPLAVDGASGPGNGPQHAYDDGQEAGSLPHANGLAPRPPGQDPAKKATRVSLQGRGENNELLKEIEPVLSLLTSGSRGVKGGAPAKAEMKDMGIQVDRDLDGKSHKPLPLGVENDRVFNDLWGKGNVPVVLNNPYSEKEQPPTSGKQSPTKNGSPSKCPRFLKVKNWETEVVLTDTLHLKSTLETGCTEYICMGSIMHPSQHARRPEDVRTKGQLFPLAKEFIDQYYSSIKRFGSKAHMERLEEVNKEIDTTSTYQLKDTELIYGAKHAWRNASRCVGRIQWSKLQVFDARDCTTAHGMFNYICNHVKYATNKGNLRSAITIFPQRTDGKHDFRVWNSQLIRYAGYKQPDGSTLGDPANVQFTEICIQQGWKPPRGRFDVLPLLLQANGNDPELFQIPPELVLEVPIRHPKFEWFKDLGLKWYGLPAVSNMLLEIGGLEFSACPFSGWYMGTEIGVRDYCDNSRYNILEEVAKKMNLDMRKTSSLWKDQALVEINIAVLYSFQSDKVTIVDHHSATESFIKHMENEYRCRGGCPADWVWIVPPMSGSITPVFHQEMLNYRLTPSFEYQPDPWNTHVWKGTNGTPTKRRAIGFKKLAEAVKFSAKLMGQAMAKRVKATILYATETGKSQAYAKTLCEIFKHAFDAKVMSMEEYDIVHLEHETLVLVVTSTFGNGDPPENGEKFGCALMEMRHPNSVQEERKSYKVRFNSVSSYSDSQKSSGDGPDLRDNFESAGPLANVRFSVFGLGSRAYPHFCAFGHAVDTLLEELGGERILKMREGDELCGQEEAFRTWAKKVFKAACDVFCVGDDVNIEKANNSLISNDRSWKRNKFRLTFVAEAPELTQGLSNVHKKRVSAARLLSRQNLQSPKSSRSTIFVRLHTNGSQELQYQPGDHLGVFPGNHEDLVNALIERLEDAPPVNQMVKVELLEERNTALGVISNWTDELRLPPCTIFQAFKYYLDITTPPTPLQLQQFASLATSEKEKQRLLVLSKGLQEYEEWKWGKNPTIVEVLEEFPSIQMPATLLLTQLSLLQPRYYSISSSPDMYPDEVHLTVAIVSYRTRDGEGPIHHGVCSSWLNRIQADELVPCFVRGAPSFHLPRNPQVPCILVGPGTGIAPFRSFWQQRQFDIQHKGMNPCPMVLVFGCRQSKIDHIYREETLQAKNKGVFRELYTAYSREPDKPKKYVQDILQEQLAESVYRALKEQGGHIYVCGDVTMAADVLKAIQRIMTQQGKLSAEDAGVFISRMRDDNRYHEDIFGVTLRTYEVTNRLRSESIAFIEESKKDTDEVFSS
observedProperty: log10 of IC50 (log10 of the value in nM)
Field: value | Transform: log10 | Quantity: IC50 | Unit: nM

Some entries whose results are on file:
query: If you can, please state the reported log10 of IC50 value of `CN1CCN(CCOc2ccc(-c3cccc(N)n3)c3ccccc23)CC1` .
result: 2.59

query: If you can, please state the reported log10 of IC50 value of CN(C)CCOc1ccc(-c2cccc(N)n2)c2c1C1CCC2C1 (configuration not stated) .
result: 2.08

query: If you can, please state the reported log10 of IC50 value of `Nc1cccc(-c2ccc(OCCN3CCCC3)c3c2CCCC3)n1` .
result: 2.15

query: If you can, please state the reported log10 of IC50 value of CN(C)C1CCCCC1Oc1ccc(-c2cccc(N)n2)c2ccccc12 (configuration not stated) .
result: 2.21

Parameters: items (list). Returns: log10 of IC50 for each item.
1. CN(C)CCOc1ccc(-c2cccc(N)n2)c2ccccc12
2. CN1CCCC1COc1ccc(-c2cccc(N)n2)c2ccccc12 (configuration not stated)
3. CN(C)CCOc1ccc(-c2cccc(N)n2)c2c1CCC2
4. CN1CCC(Oc2ccc(-c3cccc(N)n3)c3ccccc23)C1 (configuration not stated)
5. CN1CCN(CCOc2ccc(-c3cccc(N)n3)c3c2CCCC3)CC1

result:
1: 2.34; 2: 2.05; 3: 1.70; 4: 1.85; 5: 2.08

Parameters: items (list). Returns: log10 of IC50 for each item.
1. CN(C)CCOc1ccc(-c2cccc(N)n2)c2c1CCCC2
2. CN(C)CCOc1ccc(-c2cccc(N)n2)c2c1CCCCC2
3. Nc1cccc(-c2ccc(OCCN3CCCC3)c3c2CCC3)n1
4. O=[N+]([O-])c1cccc2cn[nH]c12 [7-NITROINDAZOLE]
5. Nc1cccc(-c2ccc(OCCN3CCCC3)c3ccccc23)n1

result:
1. 1.85
2. 2.04
3. 2.07
4. 3.40
5. 2.40

Parameters: items (list). Returns: log10 of IC50 for each item.
1. Nc1cccc(-c2ccc(OCC3CC4CCN3CC4)c3ccccc23)n1 (configuration not stated)
2. CN1CCN(CCOc2ccc(-c3cccc(N)n3)c3c2CCC3)CC1
3. CN(C)C1CCN(CCOc2ccc(-c3cccc(N)n3)c3ccccc23)CC1

result:
1.98
2.09
2.31
